The measurements presented in this section are drawn from PubChem BioAssay (NCI).

Tested on: UACC-257 melanoma
Test: NCI-60 one-dose screen, 48 h (100 = growth as untreated, 0 = no growth, -100 = all killed)
Conditions: 10 µM unless noted
The panel holds about 83,000 compounds, 20% with a hit somewhere; the sample as a whole holds those more often.
readout: growth (%)
Write the value in % as a bare number.

>>> df
                               input_smiles  experimental_system  quantitative_readout
0  O=C1Nc2ccc(F)cc2/C1=C\c1nc(-c2ccccc2F)n2ccccc12    UACC-257 melanoma                  96.2

Query: Request the reported growth associated with `O=C(CCCCNC(=O)c1cc(=O)c(O)co1)Nc1ccccc1`
Result: 88.7

Query: Fill in the blank: the reported growth of `CCCCNC1=C(OCC)C(=O)c2ccccc2C1=O` is ____.
Result: 95.7

Query: Can you share its growth? I mean this compound: `N#CC(C#N)N=Nc1ccc(Cl)cc1Cl`
Result: 87.3
